Cited source for all entries: patent US20140045856A1

Each item that follows carries a reported Kp at 2 h.
Test: Animal experiments and sample analysis: plasma, brain and CSF concentration
Format: in vivo
Details: rat; 2 h between administration and CSF sampling; read-out: c(CSF)/c(plasma)
reported_metric: Kp at 2 h

line_notation	measured_result
Cc1nc2cccnc2n2c(-c3cc(C(C)(C)O)ccc3Cl)nnc12	0.12
Cc1nc2ccc(C3CC3)nc2n2c(-c3cc(C(C)(C)O)ccc3F)nnc12	0.04
Cc1nc2cccnc2n2c(-c3cc(OCC4(O)CCC4)ccc3Cl)nnc12	0.06
Cc1nc2ccc(C3CC3)nc2n2c(-c3cc(OCC(C)(C)O)ccc3F)nnc12	0.04
Cc1nc2cccnc2n2c(-c3cc(CCC(C)(C)O)ccc3Cl)nnc12	0.06
Cc1ccc(C(C)(C)O)cc1-c1nnc2c(C)nc3ccc(C4CC4)nc3n12	0.03

====

Each item that follows carries a reported concentration at 2 h.
Assay: Animal experiments and sample analysis: plasma, brain and CSF concentration
Assay type: in vivo
Conditions: brain; rat; 2 h between administration and CSF sampling; doses of 10.0 or 5 μmol/kg; read-out: conc brain

line_notation	concentration at 2 h, nM
Cc1ccc(C(C)(C)O)cc1-c1nnc2c(C)nc3ccc(C4CC4)nc3n12	383
Cc1nc2cccnc2n2c(-c3cc(OCC4(O)CCC4)ccc3Cl)nnc12	47
Cc1nc2ccc(C3CC3)nc2n2c(-c3cc(C(C)(C)O)ccc3F)nnc12	218
Cc1nc2ccc(C3CC3)nc2n2c(-c3cc(OCC(C)(C)O)ccc3Cl)nnc12	183
Cc1nc2cccnc2n2c(-c3cc(C(C)(C)O)ccc3Cl)nnc12	695
Cc1nc2cccnc2n2c(-c3cc(CCC(C)(C)O)ccc3Cl)nnc12	254
Cc1nc2ccc(C3CC3)nc2n2c(-c3cc(OCC(C)(C)O)ccc3F)nnc12	441

====

Test: Metabolic stability in pooled liver microsomes
Format: in vitro ADME
Conditions: pooled liver microsomes, pH 7.6; human liver microsomes, 37° C., 1 mg/mL microsomal protein, test compound 1 μM, NADPH; read-out: Half-life - t½
reported_metric: half-life at 1 μM (min)

molecule	measured_result
Cc1ccc2nc(C)c3nnc(-c4cc(C(O)C(C)C)ccc4Cl)n3c2n1 (centres unmarked)	49
Cc1ccc(C(C)(C)CO)cc1-c1nnc2c(C)nc3ccc(C4CC4)nc3n12	12

====

Target: PDE2A (Homo sapiens)
Sequence (O00408 whole entry, species assumed): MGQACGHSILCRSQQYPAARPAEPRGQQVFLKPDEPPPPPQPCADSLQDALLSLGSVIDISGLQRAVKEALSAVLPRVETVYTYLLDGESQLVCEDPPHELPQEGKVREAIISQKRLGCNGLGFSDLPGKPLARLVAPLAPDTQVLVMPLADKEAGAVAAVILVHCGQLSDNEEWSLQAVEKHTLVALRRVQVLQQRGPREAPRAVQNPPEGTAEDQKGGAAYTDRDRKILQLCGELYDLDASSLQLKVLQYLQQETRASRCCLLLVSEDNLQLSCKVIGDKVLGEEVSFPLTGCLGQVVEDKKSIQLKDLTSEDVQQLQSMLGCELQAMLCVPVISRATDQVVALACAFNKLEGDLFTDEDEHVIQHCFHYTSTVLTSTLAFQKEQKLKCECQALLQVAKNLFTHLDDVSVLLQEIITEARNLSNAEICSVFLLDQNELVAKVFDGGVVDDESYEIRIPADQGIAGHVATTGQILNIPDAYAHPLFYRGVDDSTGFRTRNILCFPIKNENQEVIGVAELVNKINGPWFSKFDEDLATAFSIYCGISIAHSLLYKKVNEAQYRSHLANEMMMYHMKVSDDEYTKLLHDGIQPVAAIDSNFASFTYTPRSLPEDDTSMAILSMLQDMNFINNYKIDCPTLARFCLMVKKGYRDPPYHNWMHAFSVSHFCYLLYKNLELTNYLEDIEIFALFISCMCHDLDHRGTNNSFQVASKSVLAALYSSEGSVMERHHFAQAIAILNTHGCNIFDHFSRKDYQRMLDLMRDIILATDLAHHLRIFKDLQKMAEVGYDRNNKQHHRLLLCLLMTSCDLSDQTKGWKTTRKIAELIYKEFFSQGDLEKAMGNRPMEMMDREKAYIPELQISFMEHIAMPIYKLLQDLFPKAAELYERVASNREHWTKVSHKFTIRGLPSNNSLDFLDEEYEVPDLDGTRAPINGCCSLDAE
Experiment: PDE 2A assay with fluorescent substrate (IMAP, fluorescence polarization)
Format: biochemical
Conditions: read-out: PDE2 IC50
pIC50: −log10 of the molar value.
We use 7 as the dividing line for pIC50: on or above the line is True, below is False.

compound	system	assigned_label
Cc1nc2ccc(C3CC3)nc2n2c(-c3cc(CC(C)(C)O)ccc3Cl)nnc12 [Example 83]	PDE2A (Homo sapiens)	True
Cc1nc2cccnc2n2c(-c3cc(CC(C)(C)O)ccc3Cl)nnc12 [Example 82]	PDE2A (Homo sapiens)	False
Cc1ccc2nc(C)c3nnc(-c4cc(OC[C@@H](C)O)ccc4Cl)n3c2n1 [Example 35]	PDE2A (Homo sapiens)	True
Cc1nc2cccnc2n2c(-c3cc(CCC(C)(C)O)ccc3Cl)nnc12 [Example 64]	PDE2A (Homo sapiens)	True
Cc1nc2ccc(C3CC3)nc2n2c(-c3cc(OC4CCOCC4O)ccc3Cl)nnc12 (single isomer, unassigned) [Example 109b]	PDE2A (Homo sapiens)	True
Cc1ccc(C2(O)CCC2)cc1-c1nnc2c(C)nc3cccnc3n12 [Example 73]	PDE2A (Homo sapiens)	False
Cc1nc2cccnc2n2c(-c3cc(OC4CCOC4)ccc3Cl)nnc12 (centres unmarked) [Example 22]	PDE2A (Homo sapiens)	False

====

Assay: Animal experiments and sample analysis: plasma, brain and CSF concentration
Format: in vivo
Conditions: brain; rat; 0.5 h between administration and CSF sampling; doses of 10.0 or 5 μmol/kg; read-out: conc brain
Each item that follows carries a reported concentration at 0.5 h.
reported_metric: concentration at 0.5 h (nM)

line_notation	reported_metric	value_unit	measured_result
Cc1ccc2nc(C)c3nnc(-c4cc(OC[C@H](C)O)ccc4Cl)n3c2n1	concentration at 0.5 h	nM	146
Cc1nc2cccnc2n2c(-c3cc(OC[C@H](C)O)ccc3Cl)nnc12	concentration at 0.5 h	nM	351
Cc1nc2cccnc2n2c(-c3cc(OCC(C)(C)O)ccc3Cl)nnc12	concentration at 0.5 h	nM	670
Cc1nc2cccnc2n2c(-c3cc(OC4CCOCC4)ccc3Cl)nnc12	concentration at 0.5 h	nM	272

====

Endpoint: IC50. System: PDE10 (Homo sapiens, UniProt Q9Y233). Items follow.
Sequence (Q9Y233 whole entry, species assumed): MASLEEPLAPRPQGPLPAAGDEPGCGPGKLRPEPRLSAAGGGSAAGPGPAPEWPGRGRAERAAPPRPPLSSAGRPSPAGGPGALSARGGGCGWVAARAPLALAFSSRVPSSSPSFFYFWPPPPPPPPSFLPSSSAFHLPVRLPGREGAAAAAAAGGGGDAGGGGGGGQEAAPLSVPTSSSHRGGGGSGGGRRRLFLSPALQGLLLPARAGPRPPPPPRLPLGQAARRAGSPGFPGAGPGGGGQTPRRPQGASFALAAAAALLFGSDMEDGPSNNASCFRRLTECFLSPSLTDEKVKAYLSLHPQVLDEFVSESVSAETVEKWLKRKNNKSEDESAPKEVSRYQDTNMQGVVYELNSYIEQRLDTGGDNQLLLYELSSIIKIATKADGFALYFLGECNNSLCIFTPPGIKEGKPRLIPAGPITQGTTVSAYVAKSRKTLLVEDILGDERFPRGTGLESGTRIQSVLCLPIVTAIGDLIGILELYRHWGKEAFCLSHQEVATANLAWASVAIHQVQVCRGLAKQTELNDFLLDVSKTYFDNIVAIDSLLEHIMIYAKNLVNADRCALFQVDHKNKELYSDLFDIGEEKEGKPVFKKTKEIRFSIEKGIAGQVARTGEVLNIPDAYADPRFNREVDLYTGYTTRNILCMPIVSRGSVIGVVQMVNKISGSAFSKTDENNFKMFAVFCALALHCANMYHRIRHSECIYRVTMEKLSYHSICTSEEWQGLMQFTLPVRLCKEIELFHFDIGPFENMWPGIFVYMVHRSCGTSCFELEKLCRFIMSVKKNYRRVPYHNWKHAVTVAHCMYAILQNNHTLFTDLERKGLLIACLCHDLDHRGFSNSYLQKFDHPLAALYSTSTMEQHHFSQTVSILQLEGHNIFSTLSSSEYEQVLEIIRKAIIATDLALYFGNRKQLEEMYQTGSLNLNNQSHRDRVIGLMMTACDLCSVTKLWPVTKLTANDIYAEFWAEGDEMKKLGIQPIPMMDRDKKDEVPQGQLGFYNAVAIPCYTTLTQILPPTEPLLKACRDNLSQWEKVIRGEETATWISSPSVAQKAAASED

compound	IC50 [µM]
Cc1ccc(CCC(C)(C)O)cc1-c1nnc2c(C)nc3ccc(C4CC4)nc3n12	1.01
Cc1nc2ccc(C3CC3)nc2n2c(-c3cc(OC4CCOCC4O)ccc3Cl)nnc12 (single isomer, unassigned) [Example 109c]	1.36
Cc1nc2ccc(C3CC3)nc2n2c(-c3cc(CCC(C)(C)O)ccc3F)nnc12	0.674
Cc1nc2ccc(C(C)C)nc2n2c(-c3cc(C(C)(C)O)ccc3Cl)nnc12	1.4
Cc1ccc(C2(O)CCOCC2)cc1-c1nnc2c(C)nc3ccc(C4CC4)nc3n12	1.01
Cc1nc2ccc(C3CC3)nc2n2c(-c3cc(OCC(C)(C)O)ccc3F)nnc12	0.852
Cc1nc2ccc(C3CC3)nc2n2c(-c3cc(C4(O)CCOCC4)ccc3F)nnc12	1.37
Cc1nc2ccc(C3CC3)nc2n2c(-c3cc(C(C)(C)CO)ccc3F)nnc12	1.13
Cc1nc2ccc(C3CC3)nc2n2c(-c3cc(OC4CCOCC4O)ccc3Cl)nnc12 (single isomer, unassigned) [Example 109b]	1.09

====

Target: PDE2A (Homo sapiens)
Experiment: PDE 2A assay with fluorescent substrate (IMAP, fluorescence polarization)
Assay type: biochemical
Settings: read-out: PDE2 IC50
pIC50: −log10 of the molar value.
Each item that follows carries a reported pIC50.
reported_metric: pIC50

compound	measured_result
Cc1nc2ccc(C3CC3)nc2n2c(-c3cc(CC(C)(C)O)ccc3F)nnc12	8.00
Cc1nc2ccc(C3CC3)nc2n2c(-c3cc(O)ccc3Cl)nnc12	9.00
Cc1ccc(C(C)(C)O)cc1-c1nnc2c(C)nc3cc(C(C)C)cnc3n12	6.84
Cc1nc2ccc(C3(C)CC3)nc2n2c(-c3cc(C(C)(C)O)ccc3F)nnc12	7.49
Cc1nc2cccnc2n2c(-c3cc(OCC4(O)CCC4)ccc3Cl)nnc12	7.48
Cc1ccc(OCC2(O)CCC2)cc1-c1nnc2c(C)nc3cccnc3n12	6.71
Cc1nc2cccnc2n2c(-c3cc(OCC4CCOC4)ccc3Cl)nnc12 (centres unmarked)	7.42
Cc1nc2cccnc2n2c(-c3cc(OC4CCC(O)C4)ccc3Cl)nnc12 (centres unmarked)	7.11
Cc1ccc(CC(C)(C)O)cc1-c1nnc2c(C)nc3ccc(C4CC4)nc3n12	8.15
Cc1ccc(C2(O)CCOCC2O)cc1-c1nnc2c(C)nc3ccc(C4CC4)nc3n12 (single isomer, unassigned) [Example 104b]	7.52
Cc1ccc(OCC(C)(C)O)cc1-c1nnc2c(C)nc3ccc(C(C)C)nc3n12	8.05
Cc1nc2ccc(C(F)(F)F)nc2n2c(-c3cc(C(C)(C)O)ccc3F)nnc12 [Example 103c]	6.21
Cc1nc2ccc(C(C)C)nc2n2c(-c3cc(C4(O)CCC4)ccc3F)nnc12	8.70
Cc1nc2ccc(C3CC3)nc2n2c(-c3cc(OCC(C)(C)O)ccc3F)nnc12	8.10
